Test: Ratio of drug level in tumor to skin of C3H mouse bearing RIF tumors after 24 hrs by IRS
Format: ADME
Conditions: in vivo
MEASURED_ENDPOINT: Ratio
Keep the answer to the number alone.

May I ask what Ratio has been recorded for CCCCOC(C)c1c(C)c2cc3nc(c4c5[nH]c(cc6nc(cc1[nH]2)C(C)=C6CC)c(C)c5C(=O)N(Cc1cc(C(F)(F)F)cc(C(F)(F)F)c1)C4=O)[C@@H](CCC(=O)Nc1ccc(CC(CN(CCN(CC(=O)O)CC(=O)O)CC(=O)O)N(CC(=O)O)CC(=O)O)cc1)[C@@H]3C (some centres undefined) ? 3.68

May I ask what Ratio has been recorded for CCCCCCCOC(C)c1c(C)c2cc3nc(c4c5[nH]c(cc6nc(cc1[nH]2)[C@@H](C)[C@@H]6CC)c(C)c5C(=O)N(Cc1cc(C(F)(F)F)cc(C(F)(F)F)c1)C4=O)[C@@H](CCC(=O)OC)[C@@H]3C (some centres undefined) ? 6.87

May I ask what Ratio has been recorded for CCCCCCCCCCCCOC(C)c1c(C)c2cc3nc(c4c5[nH]c(cc6nc(cc1[nH]2)C(C)=C6CC)c(C)c5C(=O)N(Cc1cc(C(F)(F)F)cc(C(F)(F)F)c1)C4=O)[C@@H](CCC(=O)OC)[C@@H]3C (some centres undefined) ? 1.82

May I ask what Ratio has been recorded for CCC1=C(C)c2cc3[nH]c(cc4nc(c5c6[nH]c(cc1n2)c(C)c6C(=O)N(Cc1cc(C(F)(F)F)cc(C(F)(F)F)c1)C5=O)[C@@H](CCC(=O)OC)[C@@H]4C)c(C)c3C(C)OC (some centres undefined) ? 2.48

May I ask what Ratio has been recorded for CC[C@@H]1c2cc3[nH]c4c(c5nc(cc6[nH]c(cc(n2)[C@H]1C)c(C(C)OC)c6C)[C@@H](C)[C@@H]5CCC(=O)OC)C(=O)N(Cc1cc(C(F)(F)F)cc(C(F)(F)F)c1)C(=O)c4c3C (some centres undefined) ? 1.91

May I ask what Ratio has been recorded for CCCCOC(C)c1c(C)c2cc3nc(c4c5[nH]c(cc6nc(cc1[nH]2)[C@@H](C)[C@@H]6CC)c(C)c5C(=O)N(Cc1cc(C(F)(F)F)cc(C(F)(F)F)c1)C4=O)[C@@H](CCC(=O)OC)[C@@H]3C (some centres undefined) ? 5.3

May I ask what Ratio has been recorded for CCCCCCCCCCCCOC(C)c1c(C)c2cc3nc(c4c5[nH]c(cc6nc(cc1[nH]2)[C@@H](C)[C@@H]6CC)c(C)c5C(=O)N(Cc1cc(C(F)(F)F)cc(C(F)(F)F)c1)C4=O)[C@@H](CCC(=O)OC)[C@@H]3C (some centres undefined) ? 8.89

May I ask what Ratio has been recorded for CCCCOC(C)c1c(C)c2cc3nc(c4c5[nH]c(cc6nc(cc1[nH]2)C(C)=C6CC)c(C)c5C(=O)N(Cc1cc(C(F)(F)F)cc(C(F)(F)F)c1)C4=O)[C@@H](CCC(=O)OC)[C@@H]3C (some centres undefined) ? 4.76

May I ask what Ratio has been recorded for CCCCCCCOC(C)c1c(C)c2cc3nc(c4c5[nH]c(cc6nc(cc1[nH]2)C(C)=C6CC)c(C)c5C(=O)N(Cc1cc(C(F)(F)F)cc(C(F)(F)F)c1)C4=O)[C@@H](CCC(=O)OC)[C@@H]3C (some centres undefined) ? 1.97
